Data provenance: PubChem BioAssay (NCI)

Hi there, I'd appreciate the recorded TGI for every entry that follows.
Test system: IGROV1 ovarian
Experiment: NCI tumour cell line growth inhibition, 48 h

[in] I'd like to know its TGI. The molecule in question is CC(NC(C#N)CC12CC3CC(CC(C3)C1)C2)c1ccccc1 (stereo not given)
[out] > 100 µM

[in] I'd like to know its TGI. The molecule in question is `O=C1c2ccccc2C(=O)c2c(O)ccc(O)c21`
[out] > 100 µM

[in] I'd like to know its TGI. The molecule in question is `Nc1ccc(Oc2ccc(C34CC5CC6C3CC3CC4C(C5)C6(c4ccc(Oc5ccc(N)c(O)c5)cc4)C3)cc2)cc1O`
[out] 22.6 µM

[in] I'd like to know its TGI. The molecule in question is C=CCCCCCCCCCOC1C=CC(OC(C)=O)C(COC(C)=O)O1 (stereo not given)
[out] > 100 µM

[in] I'd like to know its TGI. The molecule in question is CCN1CCC(O)(c2ccc(Oc3ccc(C)cc3)cc2)C(C(=O)c2ccc(Oc3ccc(C)cc3)cc2)C1 (stereo not given)
[out] 25 µM

[in] I'd like to know its TGI. The molecule in question is `CC(C)c1ccc(NC(=S)NC(=O)c2ccccc2)cc1`
[out] 68.4 µM

[in] I'd like to know its TGI. The molecule in question is Cc1ccc(S(=O)(=O)NC(=O)NC(Cc2ccc(O)c(O)c2)C(=O)O)cc1 (stereo not given)
[out] > 100 µM

[in] I'd like to know its TGI. The molecule in question is `C[C@H](N)C(=O)N1C[C@H](CCCB(O)O)[C@](N)(C(=O)O)C1`
[out] > 100 µM

[in] I'd like to know its TGI. The molecule in question is `Nc1ncnc2c1cnn2Cc1ccc(Cl)cc1`
[out] > 100 µM

[in] I'd like to know its TGI. The molecule in question is `NS(=O)(=O)c1ccc(NC(=O)c2cccc3cc4ccccc4nc23)cc1`
[out] > 100 µM

----------
Hi there, I'd appreciate the recorded TGI for every entry that follows.
Test system: EKVX NSCLC
Test: NCI tumour cell line growth inhibition, 48 h

[in] I'd like to know its TGI. The compound in question is OCC(O)C(O)C(O)/C=N/Nc1nc2ccccc2nc1-c1ccccc1 (stereo unspecified)
[out] > 100 µM

[in] I'd like to know its TGI. The compound in question is `O=C(N/N=C\c1ccccc1)Nc1cccc2ccccc12`
[out] > 100 µM

[in] I'd like to know its TGI. The compound in question is CC(NC(C#N)CC12CC3CC(CC(C3)C1)C2)c1ccccc1 (stereo unspecified)
[out] > 100 µM

[in] I'd like to know its TGI. The compound in question is `Cc1ccc2c(c1)CNc1ccc(C)cc1CN2`
[out] > 100 µM

[in] I'd like to know its TGI. The compound in question is `Cc1cc2nc(N3C(=O)/C(=C/c4ccc(Cl)cc4)N=C3c3ccccc3)sc2cc1C`
[out] 91.2 µM

[in] I'd like to know its TGI. The compound in question is `CCOC(=O)/C(=C\c1ccc[nH]1)C(=O)c1ccccc1`
[out] > 100 µM

[in] I'd like to know its TGI. The compound in question is `COc1ccc(/C=N/NC(=O)c2cnc3[nH]c(=O)n(C)c(=O)c3c2)cc1`
[out] > 100 µM

[in] I'd like to know its TGI. The compound in question is `O=C1C(NCCN2CCOCC2)=C(Cl)C(=O)c2ncccc21`
[out] 2.79 µM

[in] I'd like to know its TGI. The compound in question is `COc1ccccc1NC(=O)O/N=C(/Cl)C(C)C`
[out] 29.6 µM

[in] I'd like to know its TGI. The compound in question is `COc1ccc(-c2cc(=O)c3c(OC)c(OC)c(OC)c(OC)c3o2)c(OC)c1`
[out] > 100 µM

[in] I'd like to know its TGI. The compound in question is CC12CCC(C(Nc3ccccn3)C1=O)C2(C)C (stereo unspecified)
[out] > 100 µM
